test system: Expi293 cells; settings: percentage of Helicons in cells after treatment and wash; Expi293 cells 1x10^6 cells/mL, 22 hours, 37°C; washed twice with DPBS; MS quantitation, single-point calibration; n=2, mean ± SD
Bridge positions count the residues as written; N and C are the ends. Square brackets hold non-standard residues; d marks the D form. Peptide text beside a SMILES is read from it. R8 = C=CCCCCCC[C@@](C)(N)C(=O)O; S5 = C=CCCC[C@](C)(N)C(=O)O; Nle = CCCC[C@H](N)C(=O)O
MEASURED_METRIC: Helicon in cells ± SD (%)
# number only, unit % dropped from output

Incoming: Supply reported Helicon in cells ± SD (%) belonging to this compound: CCCC[C@H](NC(=O)[C@@H](NC(C)=O)[C@@H](C)CC)C(=O)N[C@@H](C)C(=O)N[C@]1(C)CCCCCCC=CCCC[C@@](C)(C(=O)N[C@@H](CCC(N)=O)C(=O)N[C@@H](Cc2ccc(O)cc2)C(=O)N[C@@H](CC(N)=O)C(N)=O)NC(=O)[C@H](Cc2c[nH]c3ccccc23)NC(=O)[C@H](Cc2ccccc2)NC(=O)[C@H](C)NC(=O)[C@H](C)NC(=O)[C@H](CCC(N)=O)NC(=O)[C@H](Cc2ccc(O)cc2)NC1=O [FP08023] (Ac-I[Nle]A[R8]YQAAFW[S5]QYN-NH2; staple 4-11)
Outgoing: 3.0

* * *

Exercise: for every item that follows, state its recorded CellTiter-Glo fold change ± SD.
tested on: Expi293 cells; settings: luminescence at Tfinal (22 hours) divided by Tinitial, measure of ATP levels, reflective of cell health
Bridge positions count the residues as written; N and C are the ends. Square brackets hold non-standard residues; d marks the D form. Peptide text beside a SMILES is read from it. R8 = C=CCCCCCC[C@@](C)(N)C(=O)O; S5 = C=CCCC[C@](C)(N)C(=O)O; Nle = CCCC[C@H](N)C(=O)O
No unit in the answer, only the number.

Incoming: Supply reported CellTiter-Glo fold change ± SD belonging to this compound: CCCC[C@H](NC(=O)[C@@H](NC(C)=O)C(C)C)C(=O)N[C@@H](CCC(N)=O)C(=O)N[C@]1(C)CCCCCCC=CCCC[C@@](C)(C(=O)N[C@@H](Cc2c[nH]cn2)C(=O)N[C@@H](Cc2ccc(O)cc2)C(=O)N[C@H](C(N)=O)C(C)C)NC(=O)[C@H]([C@@H](C)CC)NC(=O)[C@H](Cc2ccccc2)NC(=O)[C@H](C)NC(=O)[C@H](C)NC(=O)[C@H](CCC(N)=O)NC(=O)[C@H](Cc2ccc(O)cc2)NC1=O [FP07872] (Ac-V[Nle]Q[R8]YQAAFI[S5]HYV-NH2; staple 4-11)
Outgoing: 1.1

Incoming: Supply reported CellTiter-Glo fold change ± SD belonging to this compound: CC[C@H](C)[C@H](NC(=O)[C@H](Cc1ccc(O)cc1)NC(=O)[C@H](CCC(N)=O)NC(=O)[C@]1(C)CCCC=CCCCCCC[C@@](C)(NC(=O)[C@H](Cc2c[nH]cn2)NC(=O)[C@@H](NC(=O)[C@@H](NC(C)=O)[C@@H](C)CC)[C@@H](C)CC)C(=O)N[C@@H](Cc2ccc(O)cc2)C(=O)N[C@@H](CCC(=O)O)C(=O)N[C@@H](C)C(=O)N[C@@H](C)C(=O)N[C@@H](Cc2ccccc2)C(=O)N[C@@H](Cc2ccccc2)C(=O)N1)C(N)=O [FP08012] (Ac-IIH[R8]YEAAFF[S5]QYI-NH2; staple 4-11)
Outgoing: 1.1

* * *

Exercise: for every item that follows, state its recorded Helicon in cells ± SD (%).
tested on: Expi293 cells; settings: percentage of Helicons in cells after treatment and wash; Expi293 cells 1x10^6 cells/mL, 22 hours, 37°C; washed twice with DPBS; MS quantitation, single-point calibration; n=2, mean ± SD
Bridge positions count the residues as written; N and C are the ends. Square brackets hold non-standard residues; d marks the D form. Peptide text beside a SMILES is read from it. R8 = C=CCCCCCC[C@@](C)(N)C(=O)O; S5 = C=CCCC[C@](C)(N)C(=O)O; Nle = CCCC[C@H](N)C(=O)O
# number only, unit % dropped from output

Incoming: Supply reported Helicon in cells ± SD (%) belonging to this molecule: CC[C@H](C)[C@H](NC(=O)[C@H](Cc1ccc(O)cc1)NC(=O)[C@H](CCC(N)=O)NC(=O)[C@]1(C)CCCC=CCCCCCC[C@@](C)(NC(=O)[C@H](Cc2c[nH]cn2)NC(=O)[C@@H](NC(=O)[C@@H](NC(C)=O)[C@@H](C)CC)[C@@H](C)CC)C(=O)N[C@@H](Cc2ccc(O)cc2)C(=O)N[C@@H](CCC(=O)O)C(=O)N[C@@H](C)C(=O)N[C@@H](C)C(=O)N[C@@H](Cc2ccccc2)C(=O)N[C@@H](Cc2ccccc2)C(=O)N1)C(N)=O [FP08012] (Ac-IIH[R8]YEAAFF[S5]QYI-NH2; staple 4-11)
Outgoing: 5.4

Incoming: Supply reported Helicon in cells ± SD (%) belonging to this molecule: CCCC[C@H](NC(=O)[C@@H](NC(C)=O)C(C)C)C(=O)N[C@@H](CCC(N)=O)C(=O)N[C@]1(C)CCCCCCC=CCCC[C@@](C)(C(=O)N[C@@H](Cc2c[nH]cn2)C(=O)N[C@@H](Cc2ccc(O)cc2)C(=O)N[C@H](C(N)=O)C(C)C)NC(=O)[C@H]([C@@H](C)CC)NC(=O)[C@H](Cc2ccccc2)NC(=O)[C@H](C)NC(=O)[C@H](C)NC(=O)[C@H](CCC(N)=O)NC(=O)[C@H](Cc2ccc(O)cc2)NC1=O [FP07872] (Ac-V[Nle]Q[R8]YQAAFI[S5]HYV-NH2; staple 4-11)
Outgoing: 11.7

Incoming: Supply reported Helicon in cells ± SD (%) belonging to this molecule: CC[C@H](C)[C@H](NC(C)=O)C(=O)N[C@@H](CC(C)C)C(=O)N[C@@H](CCC(N)=O)C(=O)N[C@]1(C)CCCCCCC=CCCC[C@@](C)(C(=O)N[C@@H](Cc2c[nH]cn2)C(=O)N[C@@H](Cc2ccc(O)cc2)C(=O)N[C@@H](CCC(N)=O)C(N)=O)NC(=O)[C@H](CO)NC(=O)[C@H](Cc2ccccc2)NC(=O)[C@H](C)NC(=O)[C@H](C)NC(=O)[C@H](CCC(=O)O)NC(=O)[C@H](Cc2ccc(O)cc2)NC1=O [FP07860] (Ac-ILQ[R8]YEAAFS[S5]HYQ-NH2; staple 4-11)
Outgoing: 0.3

Incoming: Supply reported Helicon in cells ± SD (%) belonging to this molecule: CC(=O)N[C@@H](CC(C)C)C(=O)N[C@H](C(=O)N[C@@H](Cc1ccccc1)C(=O)N[C@]1(C)CCCCCCC=CCCC[C@@](C)(C(=O)N[C@@H](CO)C(=O)N[C@@H](C)C(=O)N[C@@H](C)C(N)=O)NC(=O)[C@H](CC2CCC2)NC(=O)[C@H](CCC(N)=O)NC(=O)[C@H](C)NC(=O)[C@H](Cc2c[nH]c3ccccc23)NC(=O)[C@H](Cc2ccc(O)cc2)NC(=O)[C@H](CCC(=O)O)NC1=O)[C@@H](C)O [FP01413, reference compound]
Outgoing: 3.7

Incoming: Supply reported Helicon in cells ± SD (%) belonging to this molecule: CCCC[C@H](NC(=O)[C@@H](NC(C)=O)[C@@H](C)CC)C(=O)N[C@@H](C)C(=O)N[C@]1(C)CCCCCCC=CCCC[C@@](C)(C(=O)N[C@@H](CCC(N)=O)C(=O)N[C@@H](Cc2ccc(O)cc2)C(=O)N[C@@H](CC(N)=O)C(N)=O)NC(=O)[C@H](Cc2c[nH]c3ccccc23)NC(=O)[C@H](Cc2ccccc2)NC(=O)[C@H](C)NC(=O)[C@H](C)NC(=O)[C@H](CCC(N)=O)NC(=O)[C@H](Cc2ccc(O)cc2)NC1=O [FP08024] (Ac-I[Nle]A[R8]YQAAFW[S5]QYN-NH2; staple 4-11)
Outgoing: 6.5

Incoming: Supply reported Helicon in cells ± SD (%) belonging to this molecule: CC[C@H](C)[C@H](NC(C)=O)C(=O)N[C@@H](CC(C)C)C(=O)N[C@@H](CCC(N)=O)C(=O)N[C@]1(C)CCCCCCC=CCCC[C@@](C)(C(=O)N[C@@H](Cc2c[nH]cn2)C(=O)N[C@@H](Cc2ccc(O)cc2)C(=O)N[C@@H](CCC(N)=O)C(N)=O)NC(=O)[C@H](CO)NC(=O)[C@H](Cc2ccccc2)NC(=O)[C@H](C)NC(=O)[C@H](C)NC(=O)[C@H](CCC(=O)O)NC(=O)[C@H](Cc2ccc(O)cc2)NC1=O [FP07859] (Ac-ILQ[R8]YEAAFS[S5]HYQ-NH2; staple 4-11)
Outgoing: 0.1

Incoming: Supply reported Helicon in cells ± SD (%) belonging to this molecule: CCCC[C@H](NC(=O)[C@@H](NC(C)=O)C(C)C)C(=O)N[C@@H](CCC(N)=O)C(=O)N[C@]1(C)CCCCCCC=CCCC[C@@](C)(C(=O)N[C@@H](Cc2c[nH]cn2)C(=O)N[C@@H](Cc2ccc(O)cc2)C(=O)N[C@H](C(N)=O)C(C)C)NC(=O)[C@H]([C@@H](C)CC)NC(=O)[C@H](Cc2ccccc2)NC(=O)[C@H](C)NC(=O)[C@H](C)NC(=O)[C@H](CCC(=O)O)NC(=O)[C@H](Cc2ccc(O)cc2)NC1=O [FP07864] (Ac-V[Nle]Q[R8]YEAAFI[S5]HYV-NH2; staple 4-11)
Outgoing: 18.5
